# Test system: MDA-MB-231 breast
# experiment_summary: NCI tumour cell line growth inhibition, 48 h; in the data active = GI50 below about 0.43 µM; inactive = the rest
Log the outcome using a class from active, inactive

Observe how each entry below is paired with its result.
[[record]]
mol_smiles = "CN(C)CCCN1c2ccccc2CCc2ccc(Cl)cc21"
class_name = "inactive"

[[record]]
mol_smiles = "C/C(=N\\Nc1ccc2ccccc2n1)c1ccccn1"
class_name = "active"

[[record]]
mol_smiles = "COc1cccc(C=Nc2cc(C)ccn2)c1O.COc1cccc(C=Nc2cc(C)ccn2)c1O.[Cu]"
class_name = "inactive"

[[record]]
mol_smiles = "O=c1[nH]c2ccccc2nc1-c1c[nH]c2ccccc12"
class_name = "inactive"

[[record]]
mol_smiles = "COc1cc2c(cc1OCCCCOc1cc3c(cc1OC)C(=O)N1CCC[C@H]1CN3)N=C[C@@H]1CCCN1C2=O"
class_name = "inactive"


Ask | What call does the record list for `Clc1cc(Cl)c(OCC#CI)cc1Cl` ?
Reply | inactive

* * *

# Test system: A549 NSCLC
# experiment_summary: NCI tumour cell line growth inhibition, 48 h
For each of the molecules below, state its TGI.

Use these answered entries as a reference point.
[[record]]
molecule = "CN(C(=O)Cc1cc(Cl)c(Cl)cc1N=C=S)[C@H]1CCCC[C@@H]1N1CCCC1"
experimental_target = "A549 NSCLC"
val = "30.6 µM"

[[record]]
molecule = "C[Si](C)(C)OC1(C#N)C2C3CC4C2C(=O)C2C4C3C21 (centres undefined)"
experimental_target = "A549 NSCLC"
val = "> 100 µM"

[[record]]
molecule = "Nc1ncnc2[nH]ncc12"
experimental_target = "A549 NSCLC"
val = "> 66.8 µM"

[[record]]
molecule = "Cc1ccc(S(=O)(=O)NCCSCCNS(=O)(=O)c2ccc(C)cc2)cc1"
experimental_target = "A549 NSCLC"
val = "> 100 µM"

[[record]]
molecule = "C[C@@H]1CC[C@H]2C(COCCOCC3=C(C(F)(F)F)O[C@@H]4O[C@@]5(C)CC[C@H]6[C@H](C)CC[C@@H]3[C@@]46OO5)=C(C(F)(F)F)O[C@@H]3O[C@@]4(C)CC[C@@H]1[C@]32OO4"
experimental_target = "A549 NSCLC"
val = "> 100 µM"


Record TGI per entry; entries follow.
1. Cc1ccccc1N=Nc1ccc(N=Nc2c(O)ccc3ccccc23)c(C)c1
2. COC(=O)C(Cc1ccccc1)NC(=O)NC(=O)NC(=O)CI (centres undefined)
3. COc1cc(OC)c(/C=C2\N=C(C)N(Nc3nnc(NN4C(=O)/C(=C/c5c(OC)cc(OC)cc5OC)N=C4C)c4ccccc34)C2=O)c(OC)c1

Reply |
["> 100 µM", "38.9 µM", "> 100 µM"]

Ask | Value lookup for TGI; key = `COc1ccc(OC)c(NC(=O)CCC/C(CC(=O)c2ccc(O)c(OC)c2)=N\NC(=O)C[N+](C)(C)C)c1`
Reply | > 100 µM

* * *

# Tested on: OVCAR-3 ovarian
# experiment_summary: NCI tumour cell line growth inhibition, 48 h
value_kind: TGI (µM)
Answers are plain numbers, in µM.

[[record]]
compound = "O=C(c1ccccc1)C(CN1CCOCC1)c1ccccc1 (stereo not given)"
val = 1.66

[[record]]
compound = "Cc1cc(NCc2cc(Nc3ccnc4cc(Cl)ccc34)ccc2F)nc(N2CCCC2)n1"
val = 3.22

[[record]]
compound = "Cc1ccc(C2=NOC3=c4ccccc4=CSC3=C2c2ccc([N+](=O)[O-])cc2)cc1"
val = 41.9

[[record]]
compound = "COc1cc2nc(N3CCCC3)nc(NCC3CCCCC3)c2cc1OC"
val = 2.99


Kindly review the next compound as well.
Ask | Value lookup for TGI; key = `CC(=O)NC1=C(OS(=O)(=O)c2ccc(C)cc2)CN(C)C1=O`
Reply | 8.14
